System: anti-CD28 scFv
Experiment: Phage binding ELISA (panning) of clonal phage on anti-CD28 scFv, with or without CD28 soluble protein
Conditions: clonal phage supernatant; background (no anti-CD28 scFv signal)
measurement-type: Phage binding ELISA Backgroud signal
Lab note: record the figure alone, no unit after it.

Some substances with known Phage binding ELISA Backgroud signal results, for comparison:
Phage-433 (MAWCPWAQFDECLA)	0.073
Phage-442 (IYWCPIDRWNDCYN)	0.177
Phage-417 (IYWCPTAMWNRCSA)	0.086

[ask] What does the record list as Phage binding ELISA Backgroud signal for Phage-399 (MDWCPRSMWDSCFN) ?
[reply] 0.332

[ask] What does the record list as Phage binding ELISA Backgroud signal for Phage-440 (MDWCPRDRWVDCFN) ?
[reply] 0.106

[ask] What does the record list as Phage binding ELISA Backgroud signal for Phage-382 (ITWCPTSLWNRCLV) ?
[reply] 0.077

[ask] What does the record list as Phage binding ELISA Backgroud signal for Phage-386 (NHWCPTTLWNRCVA) ?
[reply] 0.293

[ask] What does the record list as Phage binding ELISA Backgroud signal for Phage-387 (MDWCPRHLWLECFN) ?
[reply] 0.064

[ask] What does the record list as Phage binding ELISA Backgroud signal for Phage-380 (MDYCPSYLWHECFA) ?
[reply] 0.065

[ask] What does the record list as Phage binding ELISA Backgroud signal for Phage-395 (MDWCPKDMWAECFN) ?
[reply] 0.083

[ask] What does the record list as Phage binding ELISA Backgroud signal for Phage-438 (MDWCPMSRWAFCFD) ?
[reply] 0.071

[ask] What does the record list as Phage binding ELISA Backgroud signal for Phage-397 (MDWCPRAMWDYCFY) ?
[reply] 0.123

[ask] What does the record list as Phage binding ELISA Backgroud signal for Phage-402 (MDWCPRHMWHECFH) ?
[reply] 0.067

[ask] What does the record list as Phage binding ELISA Backgroud signal for Phage-432 (IDWCPIIQGLPCFA) ?
[reply] 0.058

[ask] What does the record list as Phage binding ELISA Backgroud signal for Phage-391 (MDWCPFDMWADCFF) ?
[reply] 0.063

[ask] What does the record list as Phage binding ELISA Backgroud signal for Phage-446 (MDWCPRDRWDDCFN) ?
[reply] 0.069

[ask] What does the record list as Phage binding ELISA Backgroud signal for Phage-428 (MNWCPSTMWNRCLT) ?
[reply] 0.067

The origin of these recorded values is patent US20230357447A1.
